testedTarget: Ba/F3-TEL-EGFR-L858R-C797S (Homo sapiens, UniProt P00533, C797S/L858R, cells depend on it)
Construct: fused on or other part: N-terminal TEL (ETV6) oligomerising part fused to the EGFR intracellular/kinase part; P41212 (Transcription factor ETV6)
Sequence (P00533 whole entry C797S/L858R, the tested form may be a part): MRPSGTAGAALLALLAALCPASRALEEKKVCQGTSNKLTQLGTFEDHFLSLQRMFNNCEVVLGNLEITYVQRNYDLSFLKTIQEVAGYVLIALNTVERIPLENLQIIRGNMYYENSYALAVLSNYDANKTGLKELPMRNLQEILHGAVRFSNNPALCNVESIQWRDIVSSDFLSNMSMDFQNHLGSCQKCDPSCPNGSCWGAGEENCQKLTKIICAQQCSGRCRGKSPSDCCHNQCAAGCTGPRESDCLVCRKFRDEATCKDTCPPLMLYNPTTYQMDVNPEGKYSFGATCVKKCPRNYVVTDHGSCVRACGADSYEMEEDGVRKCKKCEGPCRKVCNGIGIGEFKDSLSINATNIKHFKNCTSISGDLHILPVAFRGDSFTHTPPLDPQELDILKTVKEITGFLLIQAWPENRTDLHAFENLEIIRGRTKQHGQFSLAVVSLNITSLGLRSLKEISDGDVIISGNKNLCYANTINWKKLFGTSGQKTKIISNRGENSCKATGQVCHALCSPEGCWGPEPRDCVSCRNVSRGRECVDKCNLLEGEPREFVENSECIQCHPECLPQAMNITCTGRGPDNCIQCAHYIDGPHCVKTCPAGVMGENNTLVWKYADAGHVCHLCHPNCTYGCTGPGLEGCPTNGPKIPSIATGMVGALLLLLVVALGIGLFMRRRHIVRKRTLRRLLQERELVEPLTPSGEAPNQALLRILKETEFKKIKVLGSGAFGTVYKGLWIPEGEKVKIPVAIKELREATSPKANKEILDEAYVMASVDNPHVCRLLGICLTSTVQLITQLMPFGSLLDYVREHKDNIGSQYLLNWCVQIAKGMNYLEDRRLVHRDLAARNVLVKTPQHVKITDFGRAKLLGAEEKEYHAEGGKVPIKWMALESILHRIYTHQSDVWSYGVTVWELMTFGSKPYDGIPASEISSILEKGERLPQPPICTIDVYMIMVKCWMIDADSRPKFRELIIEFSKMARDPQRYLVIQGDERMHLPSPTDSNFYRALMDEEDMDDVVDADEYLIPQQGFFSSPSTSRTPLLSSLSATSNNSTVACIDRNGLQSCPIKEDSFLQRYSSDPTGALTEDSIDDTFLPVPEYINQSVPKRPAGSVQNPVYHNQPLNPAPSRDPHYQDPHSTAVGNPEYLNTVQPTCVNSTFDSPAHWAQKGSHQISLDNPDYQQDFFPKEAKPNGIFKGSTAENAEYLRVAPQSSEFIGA
procedureSummary: CellTiter-Glo proliferation, Ba/F3-TEL-EGFR-L858R-C797S
Assay type: cell-based
testParameters: 72 hours, read-out: Ba/F3-TEL-EGFR-L858R-C797S IC50/nM
Experimental: Promega CellTiter-Glo reagent was used to detect the effects of small molecule inhibitors on the proliferation of five Ba/F3 cell lines (Ba/F3-FL-EGFR, Ba/F3-FL-EGFR-L858R, Ba/F3-FL-EGFR-L858R-T790M-C797S, Ba/F3-TEL-EGFR-L858R-C797S and Ba/F3-FL-EGFR-del19-C797S). The cell lines were cultured in an incubator at 37° C. and 5% CO2. Cells were passaged regularly and cells in the logarithmic phase were used for plating. […] Cell viability was detected by CellTiter-Glo luminescence assay. […]
observationType: GI50 (nM)

{"compound": "CCCS(=O)(=O)NC1CN(c2ccc(C(C)C)c3cc(Nc4ccnc(N5CCC(O)C(F)C5)n4)ncc23)C1 (stereo not shown)", "observationType": "GI50", "valueObserved": 29}

A = CC(C)c1ccc(N2CC(CS(C)(=O)=O)C2)c2cnc(Nc3ccnc(-c4cnn(C)c4)n3)cc12
B = CC(C)c1ccc(N2CC(CS(C)(=O)=O)C2)c2cnc(Nc3ccnc(-c4cnn(S(=O)(=O)C5CCOCC5)c4)n3)cc12
C = COCCS(=O)(=O)n1cc(-c2nccc(Nc3cc4c(C(C)C)ccc(N5CC(CS(C)(=O)=O)C5)c4cn3)n2)cn1 [Compound H15]
Inquiry: Sort the 3 compounds by GI50; largest first, smallest last. Use the labels to give the requested order.
Reply text: B, A, C

---

testedTarget: EGFR (wild-type) (Homo sapiens)
Sequence (P00533 25-1210): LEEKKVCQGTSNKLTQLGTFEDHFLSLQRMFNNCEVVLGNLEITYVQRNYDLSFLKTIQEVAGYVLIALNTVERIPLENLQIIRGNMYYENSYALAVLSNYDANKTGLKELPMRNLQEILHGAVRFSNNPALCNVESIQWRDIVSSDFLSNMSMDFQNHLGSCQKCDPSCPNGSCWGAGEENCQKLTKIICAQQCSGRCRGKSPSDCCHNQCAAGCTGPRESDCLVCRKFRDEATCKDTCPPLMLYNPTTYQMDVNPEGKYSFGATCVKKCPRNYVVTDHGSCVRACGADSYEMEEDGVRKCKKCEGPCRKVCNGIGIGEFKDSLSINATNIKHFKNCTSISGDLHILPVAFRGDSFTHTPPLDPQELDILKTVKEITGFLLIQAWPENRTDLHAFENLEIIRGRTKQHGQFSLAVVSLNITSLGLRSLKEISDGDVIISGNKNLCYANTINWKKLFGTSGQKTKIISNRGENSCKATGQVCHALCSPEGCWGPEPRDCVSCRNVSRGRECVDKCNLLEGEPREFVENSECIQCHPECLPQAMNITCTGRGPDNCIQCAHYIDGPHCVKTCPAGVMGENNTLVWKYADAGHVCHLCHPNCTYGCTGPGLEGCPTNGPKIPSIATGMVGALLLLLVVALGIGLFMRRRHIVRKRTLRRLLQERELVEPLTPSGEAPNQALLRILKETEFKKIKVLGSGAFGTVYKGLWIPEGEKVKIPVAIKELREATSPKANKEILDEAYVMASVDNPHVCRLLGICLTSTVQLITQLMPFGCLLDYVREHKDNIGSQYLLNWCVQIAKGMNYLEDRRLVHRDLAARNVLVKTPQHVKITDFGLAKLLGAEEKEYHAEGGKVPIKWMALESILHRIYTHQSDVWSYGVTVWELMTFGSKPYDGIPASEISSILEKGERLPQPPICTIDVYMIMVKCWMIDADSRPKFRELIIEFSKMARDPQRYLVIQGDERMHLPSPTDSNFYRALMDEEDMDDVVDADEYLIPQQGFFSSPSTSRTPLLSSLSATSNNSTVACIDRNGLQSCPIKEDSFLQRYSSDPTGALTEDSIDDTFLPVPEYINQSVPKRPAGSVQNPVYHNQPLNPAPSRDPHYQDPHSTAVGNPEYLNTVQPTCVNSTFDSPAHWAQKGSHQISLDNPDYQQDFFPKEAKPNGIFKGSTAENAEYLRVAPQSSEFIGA
procedureSummary: MSA (Mobility Shift Assay) kinase activity, EGFR wild type
Type: biochemical
testParameters: read-out: EGFR wt/ IC50/nM
observationType: IC50 (nM)

Study these solved cases before continuing.
{"compound": "CC(C)c1ccc(N2CC(CS(C)(=O)=O)C2)c2cnc(Nc3ccnc(-c4cnn(S(=O)(=O)C5CCC5)c4)n3)cc12", "testedTarget": "EGFR (wild-type) (Homo sapiens)", "IC50 / nM": 11.4}
{"compound": "CC(C)c1ccc(N2CC(CS(C)(=O)=O)C2)c2cnc(Nc3ccnc(-c4cnn(S(=O)(=O)C5CC5)c4)n3)cc12", "testedTarget": "EGFR (wild-type) (Homo sapiens)", "IC50 / nM": 3.9}
{"compound": "CC(C)c1ccc(N2C[C@H](NS(C)(=O)=O)[C@H]2C)c2cnc(Nc3ccnc(N4CCC(O)C(F)C4)n3)cc12 (stereo partly shown)", "testedTarget": "EGFR (wild-type) (Homo sapiens)", "IC50 / nM": 5.1}
{"compound": "CC(C)c1ccc(N2CC(CC(N)=O)C2)c2cnc(Nc3ccnc(-c4cnn(S(=O)(=O)C5CC5)c4)n3)cc12", "testedTarget": "EGFR (wild-type) (Homo sapiens)", "IC50 / nM": 6.1}

1 = COC1CCN(c2nccc(Nc3cc4c(C(C)C)ccc(N5CC(NS(C)(=O)=O)C5)c4cn3)n2)CC1F (stereo not shown)
2 = CC(C)c1ccc(N2CC(CS(C)(=O)=O)C2)c2cnc(Nc3ccnc(-c4cnn(CC(F)(F)F)c4)n3)cc12
Inquiry: Looking only at measured IC50, which entry is lower, 1 or 2 ? Answer format: the label of the selected item.
Reply text: 1
(1: 8.4 nM, 2: 24.3 nM)

---

testedTarget: EGFR (L858R/T790M/C797S) (Homo sapiens, UniProt P00533, C797S/L858R/T790M)
Sequence (P00533 25-1210 T790M/C797S/L858R): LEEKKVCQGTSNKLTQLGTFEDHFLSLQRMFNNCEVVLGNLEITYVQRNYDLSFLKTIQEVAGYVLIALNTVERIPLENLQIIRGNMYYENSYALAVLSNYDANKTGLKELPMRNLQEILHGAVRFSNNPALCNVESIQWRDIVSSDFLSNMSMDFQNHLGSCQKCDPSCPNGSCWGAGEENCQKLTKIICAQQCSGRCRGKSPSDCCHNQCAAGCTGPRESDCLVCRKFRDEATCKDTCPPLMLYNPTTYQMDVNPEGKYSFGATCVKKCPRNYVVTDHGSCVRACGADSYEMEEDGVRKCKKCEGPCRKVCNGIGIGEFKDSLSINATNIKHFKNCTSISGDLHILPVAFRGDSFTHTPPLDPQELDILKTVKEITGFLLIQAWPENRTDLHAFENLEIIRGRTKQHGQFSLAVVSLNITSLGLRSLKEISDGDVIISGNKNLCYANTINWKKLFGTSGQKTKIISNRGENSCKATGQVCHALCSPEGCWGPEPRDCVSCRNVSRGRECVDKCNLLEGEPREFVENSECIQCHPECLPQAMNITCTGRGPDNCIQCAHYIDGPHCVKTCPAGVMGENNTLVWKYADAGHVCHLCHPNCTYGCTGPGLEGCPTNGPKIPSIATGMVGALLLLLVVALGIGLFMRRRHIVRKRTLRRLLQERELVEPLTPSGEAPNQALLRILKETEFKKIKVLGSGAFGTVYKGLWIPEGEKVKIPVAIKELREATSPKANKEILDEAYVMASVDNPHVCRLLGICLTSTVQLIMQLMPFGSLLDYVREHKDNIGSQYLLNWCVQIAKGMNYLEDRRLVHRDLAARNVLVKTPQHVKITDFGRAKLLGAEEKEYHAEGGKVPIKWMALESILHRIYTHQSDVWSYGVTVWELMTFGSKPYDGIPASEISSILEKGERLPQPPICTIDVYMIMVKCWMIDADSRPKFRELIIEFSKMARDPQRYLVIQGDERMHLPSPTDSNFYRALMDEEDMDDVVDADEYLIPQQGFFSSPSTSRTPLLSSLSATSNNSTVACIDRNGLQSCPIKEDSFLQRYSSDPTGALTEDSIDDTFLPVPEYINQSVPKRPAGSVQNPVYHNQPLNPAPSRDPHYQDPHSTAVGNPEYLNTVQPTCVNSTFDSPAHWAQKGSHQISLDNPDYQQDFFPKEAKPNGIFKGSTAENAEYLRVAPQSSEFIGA
procedureSummary: MSA (Mobility Shift Assay) kinase activity, EGFR-L858R-T790M-C797S
Assay type: biochemical
observationType: IC50 (nM)

Study these solved cases before continuing.
{"molecule": "CC(C)c1ccc(N2CC(NS(=O)(=O)c3cccnc3)C2)c2cnc(Nc3ccnc(N4CCC(O)C(F)C4)n3)cc12 (stereo not drawn)", "unitAbbreviation": "nM", "IC50": 0.34}
{"molecule": "CC(C)c1ccc(N2CC(CS(C)(=O)=O)C2)c2cnc(Nc3ccnc(-c4cnn(S(=O)(=O)C5(C)CC5)c4)n3)cc12", "unitAbbreviation": "nM", "IC50": 0.6}
{"molecule": "CC(C)c1ccc(N2CC(CP(C)(C)=O)C2)c2cnc(Nc3ccnc(N4CCC(O)C(F)C4)n3)cc12 (stereo not drawn)", "unitAbbreviation": "nM", "IC50": 3.4}
{"molecule": "CC(C)c1ccc(N2CC(CS(C)(=O)=O)C2)c2cnc(Nc3ccnc(-c4cnn(S(=O)(=O)C(F)(F)F)c4)n3)cc12", "unitAbbreviation": "nM", "IC50": 3.5}
{"molecule": "COC1CCN(c2nccc(Nc3cc4c(C(C)C)ccc(N5CC(NS(C)(=O)=O)C5)c4cn3)n2)CC1F (stereo not drawn)", "unitAbbreviation": "nM", "IC50": 0.07}
{"molecule": "CC(C)c1ccc(N2CC(CS(C)(=O)=O)C2)c2cnc(Nc3ccnc(-c4cnn(S(=O)(=O)N(C)C)c4)n3)cc12", "unitAbbreviation": "nM", "IC50": 0.4}

P = CC(C)c1ccc(N2CC3(CC(S(C)(=O)=O)C3)C2)c2cnc(Nc3ccnc(-c4cnn(S(=O)(=O)C5CC5)c4)n3)cc12
Q = CC(C)c1ccc(N2CC(NS(C)(=O)=O)C2)c2cnc(Nc3ccnc(N4CCC(O)C(F)(F)C4)n3)cc12 (stereo not drawn)
R = CC(C)c1cc(C(F)(F)F)c(N2CC3(CC(CS(C)(=O)=O)C3)C2)c2cnc(Nc3ccnc(N4CCC(O)C(F)C4)n3)cc12 (stereo not drawn)
S = CC(C)c1ccc(N2CC3(CC(S(C)(=O)=O)C3)C2)c2cnc(Nc3ccnc(N4CCC(O)CC4)n3)cc12
T = CC(C)c1ccc(N2CC(N(C)S(C)(=O)=O)C2)c2cnc(Nc3ccnc(N4CC[C@@H](O)[C@@H](F)C4)n3)cc12 [Compound P39a]
Inquiry: List the 5 entries from lowest IC50 to highest IC50 value. Use the labels to give the requested order.
Reply text: T, Q, P, S, R
(T: 0.05 nM, Q: 0.1 nM, P: 0.71 nM, S: 4.6 nM, R: 7.1 nM)

1 = CCCS(=O)(=O)n1cc(-c2nccc(Nc3cc4c(C(C)C)ccc(N5CC(CS(C)(=O)=O)C5)c4cn3)n2)cn1
2 = CC(C)c1ccc(N2CC(CS(C)(=O)=O)C2)c2cnc(Nc3ccnc(-c4cnn(S(=O)(=O)C5CCCCC5)c4)n3)cc12
3 = CC(C)c1ccc(N2CC(CC(N)=O)C2)c2cnc(Nc3ccnc(N4CCC(O)C(F)C4)n3)cc12 (stereo not drawn)
4 = CC(C)c1ccc(N2C[C@H](CS(C)(=O)=O)[C@H]2C)c2cnc(Nc3ccnc(-c4cnn(S(=O)(=O)C5CC5)c4)n3)cc12
5 = CC(C)n1c(=O)nc(N2CC(CS(C)(=O)=O)C2)c2cnc(Nc3ccnc(N4CCC(O)C(F)C4)n3)cc21 (stereo not drawn)
Inquiry: List the 5 entries from lowest IC50 to highest IC50 value. Use the labels to give the requested order.
Reply text: 3, 1, 4, 5, 2
(3: 0.21 nM, 1: 0.3 nM, 4: 0.43 nM, 5: 3.4 nM, 2: 6.3 nM)

A = CC(C)c1ccc(N2CC(CS(C)(=O)=O)C2)c2cnc(Nc3ccnc(-c4cnn(S(=O)(=O)C5CCOCC5)c4)n3)cc12
B = CC(C)c1ccc(N2CC(c3ccc[nH]c3=O)C2)c2cnc(Nc3ccnc(N4CCC(O)C(F)C4)n3)cc12 (stereo not drawn)
C = CC(C)c1ccc(N2C[C@@H](NS(C)(=O)=O)[C@@H]2C)c2cnc(Nc3ccnc(N4CCC(O)C(F)C4)n3)cc12 (stereo partly drawn)
D = CC(C)n1c(=O)cc(N2CC(CS(C)(=O)=O)C2)c2cnc(Nc3ccnc(N4CCC(O)CC4)n3)cc21
Inquiry: Sort the 4 molecules by IC50; largest first, smallest last. Use the labels to give the requested order.
Reply text: C, B, D, A

a = COC1CCN(c2nccc(Nc3cc4c(cn3)c(N3CC(CS(C)(=O)=O)C3)cc(=O)n4C(C)C)n2)CC1F (stereo not drawn)
b = CC(C)c1ccc(N2CC(CS(C)(=O)=O)C2)c2cnc(Nc3ccnc(N4CCC(O)C(F)C4)n3)cc12 (stereo not drawn) [Control A, reference compound]
Inquiry: Looking only at measured IC50, which entry is lower, a or b ? Answer format: the label of the selected item.
Reply text: a
(a: 0.13 nM, b: 0.19 nM)

A = CC(C)c1ccc(N2CC(CS(C)(=O)=O)C2)c2cnc(Nc3ccnc(-c4cnn(S(C)(=O)=O)c4)n3)cc12
B = CC(C)c1ccc(N2CC(c3cscn3)C2)c2cnc(Nc3ccnc(N4CCC(O)C(F)C4)n3)cc12 (stereo not drawn)
Inquiry: Looking only at measured IC50, which entry is lower, A or B ? Answer format: the label of the selected item.
Reply text: A
(A: 0.14 nM, B: 9.9 nM)

P = CC(C)c1ccc(N2C[C@H](NS(C)(=O)=O)[C@H]2C)c2cnc(Nc3ccnc(N4CCC(O)C(F)C4)n3)cc12 (stereo partly drawn)
Q = CC(C)c1ccc(N2CC(CS(C)(=O)=O)C2)c2cnc(Nc3ccnc(-c4cnn(S(=O)(=O)C5CC5)c4)n3)cc12
Inquiry: Which one would you say has the larger IC50 value: P , or Q ? Answer format: the label of the selected item.
Reply text: Q
